# target-desc: Bile acid receptor (Homo sapiens) (UniProt Q96RI1)
# Sequence (Q96RI1 whole entry): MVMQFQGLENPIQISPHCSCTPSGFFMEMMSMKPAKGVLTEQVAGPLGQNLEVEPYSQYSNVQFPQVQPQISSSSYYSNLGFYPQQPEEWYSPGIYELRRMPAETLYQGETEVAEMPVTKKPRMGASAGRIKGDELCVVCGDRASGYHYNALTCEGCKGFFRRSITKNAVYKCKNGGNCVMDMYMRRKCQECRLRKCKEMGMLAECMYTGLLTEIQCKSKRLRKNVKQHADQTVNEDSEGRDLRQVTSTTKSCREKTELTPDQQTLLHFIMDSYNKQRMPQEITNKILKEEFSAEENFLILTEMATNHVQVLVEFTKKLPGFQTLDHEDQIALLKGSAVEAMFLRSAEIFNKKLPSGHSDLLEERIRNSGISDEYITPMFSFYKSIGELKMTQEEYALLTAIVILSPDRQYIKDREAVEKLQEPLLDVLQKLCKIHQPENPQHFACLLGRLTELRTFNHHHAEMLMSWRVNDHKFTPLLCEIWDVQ
# test-method-notes: Binding affinity to FXR assessed as ligand-dependent SRC1 recruitment by FRET based co-activator assay relative to CDCA
# Format: functional
endpoint: Efficacy (%)

C[C@H](CCNC(=O)OCc1ccc(C(=O)O)cc1)C1CC[C@H]2[C@@H]3[C@H](O)CC4C[C@H](O)CC[C@]4(C)[C@H]3CC[C@]12C (stereo partly drawn) :: 98

A: C[C@H](CCNC(=O)OC1CCCCC1)C1CC[C@H]2[C@@H]3[C@H](O)CC4C[C@H](O)CC[C@]4(C)[C@H]3CC[C@]12C (stereo partly drawn)
B: C[C@H](CCNC(=O)OC1C2CC3CC(C2)CC1C3)C1CC[C@H]2[C@@H]3[C@H](O)CC4C[C@H](O)CC[C@]4(C)[C@H]3CC[C@]12C (stereo partly drawn)
Qu. Efficacy comparison. Which is larger, A or B ? Lab log: write the label of the selected item as the result.
Ans. A
(A: 77%, B: 43%)

The measurements presented in this section are drawn from ChEMBL document CHEMBL1138887.
